Test system: CCRF-CEM
Test: NCI tumour cell line growth inhibition, 48 h
The source made the active and inactive calls. Rule as the data show it: active = GI50 up to about 1.1 µM and inactive = higher.
Outcome codes: True (active), False (inactive)

* Cc1cccc2sc(NC(=O)NS(=O)(=O)n3cnc4ccccc43)nc12 | False
* CC1=NN(C(=O)c2ccc(Cl)cc2)C(=O)/C1=C/c1ccc(Cl)cc1 | False
* O=C1/C(=C/c2ccccc2)CCc2ccccc21 | False
* CC(=O)Nc1cc(C(=O)Nc2cc(C(=O)Nc3cc(C(=O)Nc4cc(C(=O)Nc5cc(C(=O)NCCC(=O)NCCCN(C)C)n(C)c5)n(C)c4)n(C)c3)n(C)c2)n(C)c1 | False
* COc1ccc2[nH]c3c(O)nncc3c2c1 | False
* CS/C(C)=N/OC(=O)NCCCCNc1ccc(N=[N+]=[N-])cc1 | False
* C[C@]12CC[C@@H]3c4ccc(O)cc4CC[C@H]3[C@@H]1C/C(=C\c1ccc([N+](=O)[O-])cc1)C2=O | False
* COC(=O)c1ccc(/C=C2\N=C(C)OC2=O)cc1 | False
* Cc1c2cccc-2ccc2c3ccccc3n(C(=O)c3ccc(Cl)cc3)c12 | False
* O=C1/C(=C/c2ccc([N+](=O)[O-])cc2)C(=O)N(c2ccccc2)C1c1ccccc1 (configuration not stated) | False
* Clc1nc(Cl)c(Cl)c(-c2ccccc2)n1 | True
* O=C1c2ccccc2-c2cc3ccccc3c(=O)n21 | False
* O=C(CCc1n[nH]c(=S)o1)Nc1ccccc1C(F)(F)F | False
* COC(=O)C12C3C4C1C1C2C3C41C(=O)NC(C)(C)CC(=O)O (configuration not stated) | False
* CCOP(=O)(/C=C\n1ccc(=O)[nH]c1=O)OCC | False
* Cc1ccc(O)c(-c2csc(NCN3CCN(CNc4nc(-c5cc(C)ccc5O)cs4)CC3)n2)c1 | False
* O=C1C2C=CC1C1C(=O)OC(=O)C21 (configuration not stated) | False
* COc1cc(C(=O)Nc2cccc3ccccc23)c(Br)c(OC)c1OC | False
* CC1=C(C(=O)NCc2ccccc2)C(c2ccccc2C)C(C(=O)NCc2ccccc2)=C(C)N1 | False
* COC(=O)N1C2C(C[C@@]1(C)C(=O)OC)c1ccccc1N2S(=O)(=O)c1ccccc1 (some centres not stated) | False
* COC(=O)C(=O)C(CC(=O)Nc1ccc(C)cc1)C(=O)OC (configuration not stated) | False
* Cn1c(=O)[nH]n(-c2ccc3ccccc3c2)c1=O | False
* Cc1c(Cl)ccc2c1NC(=O)C2(O)C1Cc2ccccc2C1=O (configuration not stated) | False
* Cc1c(Cl)cccc1NC(=O)C(=O)C1C(=O)NC(=O)NC1=O | False
* C=CC(Br)(CBr)CCC(Br)C(C)(C)Cl (configuration not stated) | False
* Cc1ccc2cccc3c2c1CC1(C3=O)S(=O)(=O)OCCOS1(=O)=O | False
* CCCN(C(=O)c1ccccc1)C(C#N)c1ccc(C(C#N)N(CCC)C(=O)c2ccccc2)cc1 (configuration not stated) | False
* Clc1ccc(C2=NNC(c3cccc(Cl)c3)C2)cc1 (configuration not stated) | False
* COC1=CC(=C(C#N)/C(=N\c2ccccc2)SC)C=C(OC)C1=O | False
* OC[C@H]1N[C@H](CO)[C@@H](O)[C@H]1O | False
* CCOC(=O)Cn1c(=O)n(C)c(=O)c2c1ncn2Cc1ccccc1 | False
* O=[N+]([O-])c1cc(-[n+]2cc([O-])on2)ccc1F | False
* C[S+]([O-])c1ccc(COP(N)(=O)N(CCCl)CCCl)cc1 (configuration not stated) | False
* CC1(C)[C@@H]2C[C@H]1C(Cc1ccccc1C[C@H]1c3cc(-c4ccccn4)ncc3[C@H]3C[C@@H]1C3(C)C)c1cc(-c3ccccn3)ncc12 (some centres not stated) | True
* N=C(N)c1ccc(/N=N\c2c(O)c(C(=O)Nc3ccccc3)cc3ccccc23)cc1 | False
* CCOC(=O)/C=C1/Oc2ccccc2C1(C)O (configuration not stated) | False
* COc1ccccc1/C=C/c1cnccn1 | False
* Cc1cc2c(cc1C)[n+]([O-])c(C(=O)/C=C/c1ccc(Cl)cc1)c(C)[n+]2[O-] | False
* COC(=O)c1ccccc1NC(=O)C(=O)NNC(=O)c1ccncc1 | False
* COC(=O)/C(=N\NC(N)=S)C(C(=O)OC)C(=O)C(=O)Nc1ccc(C)cc1 (configuration not stated) | False
* O=C(Nc1ccccc1C(=O)O)/C(=C/c1ccccc1)NC(=O)c1ccccc1 | False
* CC[C@]1(Cc2ccc(OC)c(OC)c2)CN(S(=O)(=O)c2ccc(C)cc2)C[C@@H]1OC(C)=O | False

====

Test system: OVCAR-3
Assay: NCI tumour cell line growth inhibition, 48 h
Calls of active or inactive are those of the source. Rule as the data show it: active = GI50 up to about 1.1 µM and inactive = higher.
MEASURE: GI50

* CCOc1ccc(NC(=O)C(=O)NO)cc1 | > 100 µM (inactive)
* CC(C)=CC(=O)OC1C2C(C)=CC(O)C(O)C2(C)C2C3(O)OCC24C(CC(=O)OC14)C(C)C3O (configuration not stated) | 0.0339 µM (active)
* C1CSCCCSCCCSCCCSCCCSC1 | 28.6 µM (inactive)
* N#C/C=c1/c2ccccc2n2nc3ccccc3c12 | 34.5 µM (inactive)
* CC(=O)Oc1ccn2nc(C)c(Br)c2c1Br | 17.6 µM (inactive)
* COC1CCN(N(C)C)O1 (configuration not stated) | > 100 µM (inactive)
* N/C(=N\N=C\c1c[nH]c2ccccc12)Nc1ccccc1 | 0.134 µM (active)
* O=c1c2cccc3cccc(c4n1CCCN=4)c32 | > 100 µM (inactive)
* CCN1C(=O)C(=Cc2ccc(-c3ccccc3)cc2)C(=O)N(CC)C1=S | > 100 µM (inactive)
* COC(=O)CCC(=O)N1CC1C (configuration not stated) | > 100 µM (inactive)
* O=C(Nc1ccccc1C(=O)O)/C(=C/c1ccccc1)NC(=O)c1ccccc1 | > 100 µM (inactive)
* COc1ccc(-c2cc(O)c3nc4ccccc4n3c2)cc1 | > 100 µM (inactive)

====

System: Malme-3M
Assay: NCI tumour cell line growth inhibition, 48 h
The source made the active and inactive calls. Rule as the data show it: active = GI50 up to about 1.1 µM and inactive = higher.
MEASURE: GI50

• C=C1c2nc3ccccc3n2C=C(c2ccccc2)N1c1ccc(Cl)cc1 = 7.85 µM (inactive)
• COc1ccc(/C=C2/C[N+](C)(C)C/C(=C/c3ccc(OC)cc3)C2=O)cc1 = 22.5 µM (inactive)
• CC1OC(=O)N(CCCC=C2SCCCS2)C1=O (stereo unspecified) = > 100 µM (inactive)
• C=C(C)[C@@H]1CC=C(CO)CC1 = 324 µM (inactive)
• CC(C)=Cc1cc(C(=O)NCCNC(=O)c2cc(C=C(C)C)nc(NC#N)n2)nc(NC#N)n1 = > 100 µM (inactive)
• COc1ccc(C(SCC(N)C(=O)O)(c2ccc(OC)cc2)c2ccc(OC)cc2)cc1 (stereo unspecified) = 10.8 µM (inactive)

====

The reader will find GI50 measurements below, all made with HCT-15.
MEASURE: GI50

- CC1OC(O[C@H]2CC[C@]3(C)[C@H]4CC=C5[C@@H]6[C@@H](C)[C@H](C)CC[C@]6(C(=O)OC6OC(CO)C(O)C(O)C6O)CC[C@@]5(C(=O)O)[C@]4(C)CC[C@H]3C2(C)C)C(O)C(O)C1O (stereo not given in full): > 100 µM
- CN1CCC(CN2c3ccccc3Sc3ccccc32)CC1: 18.5 µM
- C[Si](C)(C)OC1(C#N)c2ccccc2CCCC12CCCC2 (stereo not given): 39 µM
- CC(C)=CCNc1ncnc2c1ncn2CCC(=O)OC(C)(C)C: > 100 µM
- CC[C@H]1C[C@@H](O)[C@@H]2[C@H](O)[C@H](O)CN2C1: > 100 µM
- O=C1CCN2c3ccccc3[C@H]3Cc4cccc(c4[C@@H]2C3)CCO1: 26.9 µM
- CCC12CN(C(=O)OC)C3C(Br)C1CCC(=O)C32 (stereo not given): > 100 µM
- O/N=C(/C(Cl)=C(Cl)Cl)C(Cl)Cl: 17.2 µM
- Oc1ccccc1/C=N/Nc1nc(N/N=C/c2ccccc2O)nc(N/N=C/c2ccccc2O)n1: 13.3 µM
- O=C(N/N=C\c1cccc2ccccc12)Nc1ccc([N+](=O)[O-])cc1: 13.9 µM

====

Tested on: K562
Test: NCI tumour cell line growth inhibition, 48 h
Activity calls are given as the source filed them. Cut-off read from the data, not from the text of the source: active = GI50 up to about 1.1 µM and inactive = higher.
MEASURE: GI50

* CNS(=O)(=O)c1ccccc1C(=N)c1ccccc1 | > 100 µM (inactive)
* N#CC(C#N)=C1C(=O)NC(N)=C1C#N | > 100 µM (inactive)
* CC(CO)[C@H]1OC(=O)C=C2[C@@]13O[C@@H]3[C@H]1OC(=O)[C@@]3(C)[C@H]4O[C@H]4C[C@@]2(C)[C@@H]13 (some centres not stated) | 1.17 µM (inactive)
* COC(=O)c1cc(OC(C)=O)c2c(OC)ccc(OC)c2c1 | > 100 µM (inactive)
* Cc1nc(Nc2ccc([N+](=O)[O-])cc2)sc1C(=O)/C=C/c1ccc(N(C)C)cc1 | 37.8 µM (inactive)
* O=C1CCN(CCC(F)(F)C(F)(F)C(F)(F)C(F)(F)F)C(=S)N1 | > 100 µM (inactive)
* COC1C2C[C@@H](O)CCC2C(C(=O)OCCl)C[C@H]1O (some centres not stated) | > 100 µM (inactive)
* CCCCCCc1nn2c(-c3ccncc3)nnc2s1 | > 10 µM (inactive)
* Cc1c(Cl)cccc1NC(=O)C(=O)C1C(=O)NC(=O)NC1=O | > 100 µM (inactive)
* CSc1nc2nc(C(O)C(O)C(O)CO)cnc2c(=O)[nH]1 (configuration not stated) | > 10 µM (inactive)
* Cc1ccc(C2=C(C#N)C(=O)N3CCN=C3S2)cc1 | 58.2 µM (inactive)
* Cc1ccc2nc(-c3ccc(N)c(I)c3)sc2c1 | 21.3 µM (inactive)
